target: DNA-dependent protein kinase (DNA-PK) (Homo sapiens, UniProt P78527); construct: endogenous in cells; host or cells: Jurkat, clone E6-1 (ATCC TIB-152) cell lysate; assay: kinobeads assay, DNA-PK; format: binding; settings: kinobeads assay, Table 4; read-out: Inhibition values (IC50) DNA-PK
Observation type: IC50

The compound listed as CCNC(=O)Nc1ccc(-c2nc3c(c(N4CCOC[C@@H]4C)n2)CN(S(C)(=O)=O)C3)cc1 shows IC50 equal to > 10 µM

The compound listed as CCNC(=O)Nc1ccc(-c2nc3c(c(N4CCOC[C@@H]4C)n2)CCN(C(=O)C(C)C)C3)cc1 shows IC50 equal to > 10 µM

The compound listed as C[C@H]1COCCN1c1nc(-c2ccc(NC(N)=O)cc2)nc2c1CNC2 shows IC50 equal to > 10 µM

The compound listed as CNC(=O)Nc1ccc(-c2nc3c(c(N4CCOC[C@@H]4C)n2)CCNC3)cc1 shows IC50 equal to > 10 µM

The compound listed as CCNC(=O)Nc1ccc(-c2nc3c(c(N4CCOC[C@@H]4C)n2)CCN(CC2CC2)C3)cc1 shows IC50 equal to > 10 µM

The compound listed as CCNC(=O)Nc1ccc(-c2nc3c(c(N4CCOC[C@@H]4C)n2)CCN(C)C3)cc1 shows IC50 equal to > 10 µM

The compound listed as C[C@H]1COCCN1c1nc(-c2ccc(NC(N)=O)cc2)nc2c1CN(C=O)C2 shows IC50 equal to > 10 µM

The compound listed as CCNC(=O)Nc1ccc(-c2nc3c(c(N4CCOC[C@@H]4C)n2)CN(C(=O)c2ccc(F)cc2)C3)cc1 shows IC50 equal to > 10 µM

====

target: PI3K delta (PI3 Kd) (Homo sapiens); construct: endogenous in cells; host or cells: Jurkat, clone E6-1 (ATCC TIB-152) cell lysate; assay: kinobeads assay, PI3K delta; assay type: binding; conditions: kinobeads assay, Table 6; read-out: Inhibition values (IC50) PI3Kd
Sequence (O00329 whole entry, one chain of several): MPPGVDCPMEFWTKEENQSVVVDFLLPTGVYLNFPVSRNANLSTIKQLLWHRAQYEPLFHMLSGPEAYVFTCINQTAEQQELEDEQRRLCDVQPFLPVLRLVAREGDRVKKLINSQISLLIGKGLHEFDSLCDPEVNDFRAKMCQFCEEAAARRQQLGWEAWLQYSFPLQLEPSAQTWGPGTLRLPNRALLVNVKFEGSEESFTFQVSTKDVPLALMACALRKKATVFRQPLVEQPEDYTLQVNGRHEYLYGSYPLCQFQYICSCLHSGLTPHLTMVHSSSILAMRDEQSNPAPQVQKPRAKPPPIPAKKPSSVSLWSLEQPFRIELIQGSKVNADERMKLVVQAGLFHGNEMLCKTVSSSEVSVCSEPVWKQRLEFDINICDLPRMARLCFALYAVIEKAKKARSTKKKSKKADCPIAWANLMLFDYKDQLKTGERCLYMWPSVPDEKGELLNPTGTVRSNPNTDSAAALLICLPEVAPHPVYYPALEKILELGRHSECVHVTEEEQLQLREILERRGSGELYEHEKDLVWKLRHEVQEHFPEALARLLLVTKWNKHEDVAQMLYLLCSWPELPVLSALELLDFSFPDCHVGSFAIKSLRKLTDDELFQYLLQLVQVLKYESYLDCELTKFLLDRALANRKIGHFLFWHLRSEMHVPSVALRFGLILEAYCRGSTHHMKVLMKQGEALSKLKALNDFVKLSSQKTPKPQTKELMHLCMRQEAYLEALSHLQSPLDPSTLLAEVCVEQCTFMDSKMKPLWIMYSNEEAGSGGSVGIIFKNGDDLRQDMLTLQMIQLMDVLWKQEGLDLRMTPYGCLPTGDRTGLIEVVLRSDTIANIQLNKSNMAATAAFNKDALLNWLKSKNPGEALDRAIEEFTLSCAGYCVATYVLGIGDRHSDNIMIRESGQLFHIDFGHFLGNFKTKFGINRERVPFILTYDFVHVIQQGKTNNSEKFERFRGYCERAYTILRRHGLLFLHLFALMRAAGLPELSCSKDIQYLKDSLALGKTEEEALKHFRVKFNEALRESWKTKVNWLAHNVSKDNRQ
pIC50: −log10 of the molar value.
Kindly supply the reported pIC50 values for the records listed here.

The compound listed as CCNC(=O)Nc1ccc(-c2nc3c(c(N4CCOC[C@@H]4C)n2)CNC3)cc1 shows pIC50 equal to < 5.00

The compound listed as CC(C)N1CCc2c(nc(-c3ccc(NC(=O)NC4CC4)cc3)nc2N2CCOC[C@@H]2C)C1 shows pIC50 equal to < 5.00

The compound listed as CCNC(=O)Nc1ccc(-c2nc3c(c(N4CCOCC4)n2)CCN(C(=O)OCC)C3)cc1 shows pIC50 equal to < 5.00

The compound listed as CCOC(=O)N1Cc2nc(-c3ccc(NC(=O)NCC(=O)NC)cc3)nc(N3CCOC[C@@H]3C)c2C1 shows pIC50 equal to 6.00 to 7.00

====

molecular target: PI3 Kbeta (PI3 Kb) (Homo sapiens); construct: endogenous in cells; host or cells: cell lysate; assay: kinobeads assay, PI3Kbeta; type: binding; conditions: kinobeads assay, Table 6; read-out: Inhibition values (IC50) PI3Kb
Sequence (P42338 whole entry): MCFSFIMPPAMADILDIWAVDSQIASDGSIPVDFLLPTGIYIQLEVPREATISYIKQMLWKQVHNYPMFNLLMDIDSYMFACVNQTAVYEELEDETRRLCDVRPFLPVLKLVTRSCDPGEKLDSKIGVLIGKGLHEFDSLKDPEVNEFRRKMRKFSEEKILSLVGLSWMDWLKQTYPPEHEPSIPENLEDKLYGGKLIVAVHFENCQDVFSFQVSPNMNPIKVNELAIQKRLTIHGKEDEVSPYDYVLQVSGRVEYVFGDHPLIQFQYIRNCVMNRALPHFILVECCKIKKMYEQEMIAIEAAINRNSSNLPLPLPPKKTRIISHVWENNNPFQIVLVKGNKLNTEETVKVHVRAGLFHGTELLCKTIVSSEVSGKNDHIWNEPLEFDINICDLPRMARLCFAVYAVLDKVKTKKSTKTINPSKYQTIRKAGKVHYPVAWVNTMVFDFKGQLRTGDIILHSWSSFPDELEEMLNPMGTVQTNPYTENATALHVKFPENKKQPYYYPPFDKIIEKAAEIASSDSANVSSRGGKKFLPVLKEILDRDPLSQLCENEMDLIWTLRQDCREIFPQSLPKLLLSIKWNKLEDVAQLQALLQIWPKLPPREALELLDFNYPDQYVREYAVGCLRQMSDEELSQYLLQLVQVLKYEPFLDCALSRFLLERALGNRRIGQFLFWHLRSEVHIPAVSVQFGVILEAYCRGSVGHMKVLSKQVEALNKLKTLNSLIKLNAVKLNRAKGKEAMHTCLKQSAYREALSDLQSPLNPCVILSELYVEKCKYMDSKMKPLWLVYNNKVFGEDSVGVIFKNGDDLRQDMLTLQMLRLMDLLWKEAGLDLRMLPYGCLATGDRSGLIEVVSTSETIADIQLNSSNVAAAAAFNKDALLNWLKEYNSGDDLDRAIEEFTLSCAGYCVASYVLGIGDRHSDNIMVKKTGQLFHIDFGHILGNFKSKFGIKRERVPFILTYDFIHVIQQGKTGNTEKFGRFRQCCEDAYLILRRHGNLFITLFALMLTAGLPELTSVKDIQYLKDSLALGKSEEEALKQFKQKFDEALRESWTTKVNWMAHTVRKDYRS
Sequence (P27986 whole entry partner): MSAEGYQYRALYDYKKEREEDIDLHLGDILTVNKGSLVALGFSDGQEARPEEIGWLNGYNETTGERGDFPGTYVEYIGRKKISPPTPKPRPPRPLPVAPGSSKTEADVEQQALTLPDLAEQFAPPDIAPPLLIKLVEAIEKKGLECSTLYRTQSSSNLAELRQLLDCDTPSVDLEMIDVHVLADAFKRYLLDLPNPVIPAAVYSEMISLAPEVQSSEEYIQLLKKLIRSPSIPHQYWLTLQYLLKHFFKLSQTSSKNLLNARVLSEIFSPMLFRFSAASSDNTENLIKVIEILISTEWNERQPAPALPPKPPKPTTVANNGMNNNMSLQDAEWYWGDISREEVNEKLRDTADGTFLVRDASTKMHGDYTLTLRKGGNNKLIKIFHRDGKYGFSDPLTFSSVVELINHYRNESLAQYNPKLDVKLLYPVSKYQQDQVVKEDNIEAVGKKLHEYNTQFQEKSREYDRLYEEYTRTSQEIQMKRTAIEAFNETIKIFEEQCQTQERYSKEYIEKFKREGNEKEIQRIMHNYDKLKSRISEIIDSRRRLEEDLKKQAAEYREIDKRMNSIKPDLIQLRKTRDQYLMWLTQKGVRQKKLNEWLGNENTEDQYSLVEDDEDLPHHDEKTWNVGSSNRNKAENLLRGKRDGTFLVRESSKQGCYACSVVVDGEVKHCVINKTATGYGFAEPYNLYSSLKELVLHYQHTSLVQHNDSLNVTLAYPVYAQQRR
pIC50: −log10 of the molar value.
Observation type: pIC50

The compound listed as CC(=O)NCCCC(=O)N1Cc2nc(-c3ccc(NC(=O)NC4CC4)cc3)nc(N3CCOC[C@@H]3C)c2C1 [Example 133] shows pIC50 equal to 5.00 to 6.00

The compound listed as CCNC(=O)N1CCc2c(nc(-c3ccc(NC(=O)NC4CC4)cc3)nc2N2CCOC[C@@H]2C)C1 [Example 88] shows pIC50 equal to < 5.00

The compound listed as CCNC(=O)Nc1ccc(-c2nc3c(c(N4CCOCC4)n2)CCN(C(C)=O)C3)cc1 [Example 97] shows pIC50 equal to 5.00 to 6.00

The compound listed as CCNC(=O)Nc1ccc(-c2nc3c(c(N4CCOC[C@@H]4C)n2)CCN(C(=O)C(C)C)C3)cc1 [Example 57] shows pIC50 equal to < 5.00

The compound listed as CCNC(=O)Nc1ccc(-c2nc3c(c(N4CCOC[C@@H]4C)n2)CN(C(=O)C(C)C)C3)cc1 [Example 21] shows pIC50 equal to < 5.00

The compound listed as CCNC(=O)Nc1ccc(-c2nc3c(c(N4CCOCC4)n2)CCN(C)C3)cc1 [Example 93] shows pIC50 equal to < 5.00

The compound listed as CCNC(=O)Nc1ccc(-c2nc3c(c(N4CCOCC4)n2)CCN(C(=O)NCC)C3)cc1 [Example 94] shows pIC50 equal to < 5.00

The compound listed as CCNC(=O)Nc1ccc(-c2nc3c(c(N4CCOC[C@@H]4C)n2)CCN(C)C3)c(C)c1 [Example 109] shows pIC50 equal to < 5.00
